# Tested on: MDA-MB-231 breast
# TEST DESCRIPTION: NCI tumour cell line growth inhibition, 48 h
MEASURED QUANTITY: log10(TGI) (log10 of the value in µM)
# values: log10(TGI), units µM

In the examples that follow, each entry is paired with its recorded log10(TGI).
CCCCCCCCC/C=C1\CC(CO)(COC(=O)c2ccccc2)OC1=O (stereo not given) = 1.61
O=C(/C=C\c1ccc2ccccc2n1)c1cc(Cl)ccc1O = 1.39
COc1cc2c(cc1OCCCN1CCN(c3cc(=O)oc4c(C)c(OC)ccc34)CC1)N=C[C@@H]1CCCN1C2=O = 0.78
CO/N=C(/COc1c(-c2ccccc2)oc2ccccc2c1=O)c1ccc(F)cc1 = 1.73
CCC(C)C1(O)OC2CC3(C)OC(=CC3=O)/C(C)=C\C3OC(=O)C1(C)C32 (stereo not given) = 1.61

We next turn to a different compound, shown below.
[ask] Recorded log10(TGI) for COc1ccc(-c2ccccc2)cc1-c1c(Nc2cc(Cl)cc(Cl)c2O)c(=O)c1=O , please?
[reply] 0.50
